Origin of the recorded values: ChEMBL document CHEMBL3046420

Tested on: Athelia rolfsii
assay: Antifungal activity against Athelia rolfsii assessed as mycelial growth inhibition at 100 ug/disk after 2 to 4 days by disk diffusion method relative to control
Assay type: functional
measurement-context: Agroathelia rolfsii; read-out: DIZ
Measured zone of inhibition at 100 µg/disc of individual entries

{"columns": ["compound", "zone of inhibition at 100 µg/disc (mm)"],
 "data": [
  ["O=c1c(O[C@@H]2O[C@H](CO)[C@@H](O)[C@H](O)[C@H]2O)c(-c2ccc(O[C@@H]3O[C@H](CO)[C@@H](O)[C@H](O)[C@H]3O)cc2)oc2cc(O)cc(O)c12", 3.7],
  ["O=c1ccc2ccc(O[C@@H]3O[C@H](CO)[C@@H](O)[C@H](O)[C@H]3O)cc2o1", 2.8],
  ["COc1cc([C@H]2Oc3c(O)cc(CCCO)cc3[C@@H]2CO)ccc1O[C@@H]1O[C@@H](C)[C@H](O)[C@@H](O)[C@H]1O [MASSONIANOSIDE B]", 0],
  ["COc1cc(CCCO)ccc1O[C@@H]1O[C@H](CO)[C@@H](O)[C@H](O)[C@H]1O [DIHYDROCONIFERIN]", 0]
]}

----------
Tested on: Athelia rolfsii
assay: Antifungal activity against Athelia rolfsii assessed as mycelial growth inhibition at 100 ug/disk after 2 to 4 days by disk diffusion method relative to control
Assay type: functional
measurement-context: Agroathelia rolfsii; read-out: DIZ

{"columns": ["compound", "tested-target", "zone of inhibition at 100 µg/disc"],
 "data": [
  ["COc1c(-c2ccc(O)cc2)oc2c(O[C@@H]3O[C@H](CO)[C@@H](O)[C@H](O)[C@H]3O)c(O)c(C)c(O)c2c1=O", "Athelia rolfsii", "9.4 mm"],
  ["C[C@@H]1O[C@@H](OC[C@H]2O[C@@H](OC(=O)/C=C/c3ccccc3)[C@H](O)[C@@H](O)[C@@H]2O)[C@H](O)[C@H](O)[C@H]1O [GLEDITSCHIASIDE A]", "Athelia rolfsii", "0 mm"],
  ["O=C(/C=C/c1ccc(O)cc1)OC[C@H]1O[C@@H](Oc2c(-c3ccc(O)cc3)oc3cc(O)cc(O)c3c2=O)[C@H](O)[C@@H](O)[C@@H]1O [TILIROSIDE]", "Athelia rolfsii", "2.6 mm"],
  ["COc1c(-c2ccc(O[C@@H]3O[C@H](CO)[C@@H](O)[C@H](O)[C@H]3O)cc2)oc2c(O[C@@H]3O[C@H](CO)[C@@H](O)[C@H](O)[C@H]3O)c(O)c(C)c(O)c2c1=O", "Athelia rolfsii", "4.8 mm"],
  ["COC(=O)Nc1nc2ccccc2[nH]1", "Athelia rolfsii", "11.6 mm"],
  ["O=c1cc(-c2ccc(O)cc2)oc2cc(O[C@@H]3O[C@H](CO)[C@@H](O)[C@H](O)[C@H]3O)cc(O)c12", "Athelia rolfsii", "4.8 mm"]
]}

----------
Test system: Pyricularia grisea
assay: Antifungal activity against Magnaporthe grisea assessed as mycelial growth inhibition at 100 ug/disk after 2 to 4 days by disk diffusion method relative to control
Type: functional
measurement-context: read-out: DIZ
Values of zone of inhibition at 100 µg/disc greater than or equal to 6 mm map to 1 (yes); values below map to 0 (no).

{"columns": ["compound", "assigned-label"],
 "data": [
  ["C[C@@H]1O[C@@H](OC[C@H]2O[C@@H](OC(=O)/C=C/c3ccccc3)[C@H](O)[C@@H](O)[C@@H]2O)[C@H](O)[C@H](O)[C@H]1O [GLEDITSCHIASIDE A]", "0 (no)"],
  ["COc1cc([C@H]2Oc3c(O)cc(CCCO)cc3[C@@H]2CO)ccc1O[C@@H]1O[C@@H](C)[C@H](O)[C@@H](O)[C@H]1O [MASSONIANOSIDE B]", "1 (yes)"],
  ["O=c1c(O[C@@H]2O[C@H](CO)[C@@H](O)[C@H](O)[C@H]2O)c(-c2ccc(O[C@@H]3O[C@H](CO)[C@@H](O)[C@H](O)[C@H]3O)cc2)oc2cc(O)cc(O)c12", "0 (no)"],
  ["O=c1ccc2ccc(O[C@@H]3O[C@H](CO)[C@@H](O)[C@H](O)[C@H]3O)cc2o1", "0 (no)"],
  ["COC(=O)Nc1nc2ccccc2[nH]1", "1 (yes)"],
  ["O=c1cc(-c2ccc(O)cc2)oc2cc(O[C@@H]3O[C@H](CO)[C@@H](O)[C@H](O)[C@H]3O)cc(O)c12", "0 (no)"],
  ["O=C(/C=C/c1ccc(O)cc1)OC[C@H]1O[C@@H](Oc2c(-c3ccc(O)cc3)oc3cc(O)cc(O)c3c2=O)[C@H](O)[C@@H](O)[C@@H]1O [TILIROSIDE]", "0 (no)"],
  ["COc1c(-c2ccc(O[C@@H]3O[C@H](CO)[C@@H](O)[C@H](O)[C@H]3O)cc2)oc2c(O[C@@H]3O[C@H](CO)[C@@H](O)[C@H](O)[C@H]3O)c(O)c(C)c(O)c2c1=O", "0 (no)"],
  ["COc1cc(CCCO)ccc1O[C@@H]1O[C@H](CO)[C@@H](O)[C@H](O)[C@H]1O [DIHYDROCONIFERIN]", "1 (yes)"],
  ["COc1c(-c2ccc(O)cc2)oc2c(O[C@@H]3O[C@H](CO)[C@@H](O)[C@H](O)[C@H]3O)c(O)c(C)c(O)c2c1=O", "1 (yes)"]
]}
